Test system: UACC-62
PROTOCOL TEXT: NCI tumour cell line growth inhibition, 48 h
Activity calls are given as the source filed them. Rule as the data show it: active = GI50 up to about 1.1 µM and inactive = higher.
Form entry, call: pick from active, inactive

As a guide, the following entries are already answered.
# COMPOUND, LABEL VALUE
measured = [
    ("C=C1CCCCCCCCCCC12SCCC2CCCCSC (stereo not drawn)", "inactive"),
    ("COc1cc(/C=C2\\C[C@H]3[C@@H]4CCC5=CC(=O)CC[C@]5(C)[C@H]4CC[C@]3(C)C2=O)cc(OC)c1OC", "inactive"),
]

Now let's try a different one.
Data request: Name the outcome recorded for CC(=O)OC1CCn2c1nc1c2C(=O)C=C(N2CC2)C1=O (stereo not drawn) in the assay.
Data returned: active

###

Test system: NCI-H460
PROTOCOL TEXT: NCI tumour cell line growth inhibition, 48 h
Activity calls are given as the source filed them. Rule as the data show it: active = GI50 up to about 1.1 µM and inactive = higher.
Hello, when you answer, please use one of the following outcomes: active, inactive

# COMPOUND, MEASURED TARGET, LABEL VALUE
data = [
    ("Cc1nc2ccc(/N=N/N(C)C)cc2[nH]1", "NCI-H460", "inactive"),
]

Data request: Field: outcome | Entry: CCN(CC)c1ccc(/N=C2\C=C(Cl)C(=O)c3ncccc32)c(C)c1
Data returned: inactive

Data request: Next entry: Cc1[nH]c2ncn(/N=C/c3ccccc3)c(=N)c2c1Cc1ccccc1
Data returned: inactive

Data request: Also, O=c1c2cc(S(=O)(=O)Nc3c(Cl)cccc3Cl)ccc2ncn1NS(=O)(=O)c1ccc2ccccc2c1 please.
Data returned: inactive

Data request: Further, for C[C@]12CC[C@H]3[C@@H](CC[C@]4(O)C[C@@H](O)CC[C@]34CO)[C@@]1(O)CC[C@@H]2C1=CC(=O)OC1 [STROPHANTHIDOL] ?
Data returned: active

Data request: And for c1ccc(Nc2nnc(-c3nsc4ccccc34)o2)cc1 ?
Data returned: inactive

###

Tested on: TK-10
PROTOCOL TEXT: NCI tumour cell line growth inhibition, 48 h
Active and inactive are the calls of the source. Rule as the data show it: active = GI50 up to about 1.1 µM and inactive = higher.
MEASURED PROPERTY: GI50

Reference set (5 entries):
# MOLECULE, MEASURED TARGET, GI50
rows = [
    ("O=C(O)CCNCCCCNCCC(=O)O", "TK-10", "> 100 µM (inactive)"),
    ("CC(NNC(=O)c1ccncc1)c1ccc(F)cc1 (stereo unspecified)", "TK-10", "> 100 µM (inactive)"),
    ("CN1CCN(C2=C(Cl)C(=O)c3c(O)ccc(O)c3C2=O)CC1", "TK-10", "0.514 µM (active)"),
    ("Oc1ccccc1CNCc1ccccc1O", "TK-10", "> 100 µM (inactive)"),
    ("CC(=O)O[C@H]1CC[C@@]2(C)C(=CC[C@@H]3[C@@H]2CC[C@]2(C)c4c(cc(C#N)c(=N)n4C(C)=O)C[C@@H]32)C1", "TK-10", "25.4 µM (inactive)"),
]

Data request: Entry CCCCCC#COC1CC(C)CC[C@@H]1C(C)C (stereo partly specified) has what GI50?
Data returned: > 100 µM (inactive)

Data request: Same question, O=[N+]([O-])/C(Cl)=C(\NCCN/C(C(Cl)=C(Cl)Cl)=C(/Cl)[N+](=O)[O-])C(Cl)=C(Cl)Cl this time
Data returned: 71.4 µM (inactive)

Data request: Quick one: COc1cc2ccc1OCc1cccc(n1)COc1ccc(cc1OC)/C=N\CCNCCNCC/N=C\2
Data returned: > 100 µM (inactive)

Data request: Note, next up: CCOC(=O)c1cc2c(OC)cc(OC)cc2oc1=O
Data returned: > 100 µM (inactive)

Data request: Try the molecule Clc1nc(NC23CC4CC(CC(C4)C2)C3)nc(NC23CC4CC(CC(C4)C2)C3)n1
Data returned: > 100 µM (inactive)

Data request: Another molecule to check: CC[C@@]1(C[C@H]2C[C@@]3(C(=O)OC)c4[nH]c5ccccc5c4CCN3C2=O)COC2(CCCCC2)O1
Data returned: 32.8 µM (inactive)

Data request: O=C(/C=C/C=C/c1ccccc1)c1ccc2c(c1)CCCC2 , same question.
Data returned: 73.6 µM (inactive)

Data request: Another: COc1ccc(/C=C/c2sc3ccccc3[n+]2CCCCI)cc1OC
Data returned: > 10 µM (inactive)

Data request: Do the same for O=C1C=C2CC[C@H]3[C@@H]4CC[C@H](OC(=O)c5cccc6cc7ccccc7nc56)[C@H]4CC[C@@H]3[C@H]2CC1 please
Data returned: > 100 µM (inactive)

Data request: Would you kindly repeat that for CC(C)(C)N(Cc1ccc2c(c1)OCO2)C(=O)/C=C\Sc1ccccc1 ?
Data returned: > 100 µM (inactive)

Data request: Now give it for Cc1ccc(/C=N/Nc2cnccn2)s1 too.
Data returned: > 100 µM (inactive)

###

# GI50 annotations
Test system: Hs-578T
PROTOCOL TEXT: NCI tumour cell line growth inhibition, 48 h
The source made the active and inactive calls. Cut-off read from the data, not from the text of the source: active = GI50 up to about 1.1 µM and inactive = higher.

Consider the reported GI50 for these molecules:
# MOLECULE, MEASURED TARGET, GI50
data = [
    ("Nc1nc(Cl)cc(NCC2(CO)CCCC2)n1", "Hs-578T", "> 100 µM (inactive)"),
    ("O=C(CCl)Nc1ccc(-c2nc3ccccc3s2)cc1", "Hs-578T", "5.96 µM (inactive)"),
    ("N#Cc1ncn(-c2ccccc2)c1N", "Hs-578T", "> 100 µM (inactive)"),
    ("O=C1c2c(Br)sc(Br)c2[C@@H](Cl)[C@H]1Cl", "Hs-578T", "36.6 µM (inactive)"),
    ("c1ccc(COCC23CCN(Cc4ccccc4)C(CC(OCc4ccccc4)C2)S3)cc1 (stereo unspecified)", "Hs-578T", "86.3 µM (inactive)"),
]

Data request: Given COC(=O)C(CSSC[C@H](N/C(C)=C/C(C)=O)C(=O)OC)N/C(C)=C/C(C)=O (stereo partly specified) , state its recorded GI50.
Data returned: 21.6 µM (inactive)

Data request: What about O=C(O)CCSC(CC1(c2ccc(Cl)cc2)NC(=O)CCS1)c1ccccc1 (stereo unspecified) ?
Data returned: 12.9 µM (inactive)

###

System: DU-145
PROTOCOL TEXT: NCI tumour cell line growth inhibition, 48 h
Calls of active or inactive are those of the source. No stated cut-off is given here; in the data, active = GI50 up to about 1.1 µM and inactive = higher.
MEASURED PROPERTY: GI50

Example cases with answers are listed next.
# COMPOUND, MEASURED TARGET, TEST RESULT
rows = [
    ("CC(=O)O/C=C1/C[C@H]2[C@@H]3CCC4CC(C(C)=O)CC[C@]4(C)[C@H]3CC[C@]2(C)C1=O (stereo partly specified)", "DU-145", "> 100 µM (inactive)"),
    ("O=C(Cn1nc(Br)c(Br)c1Br)c1ccccc1", "DU-145", "38.5 µM (inactive)"),
]

Data request: Return reported GI50; argument: COC(=O)C1=C(C(=O)OC)C23CC4CCC2(C(=O)C1O3)C4(C)C (stereo unspecified)
Data returned: > 100 µM (inactive)

Data request: # iterate: CCOP(=O)(Nc1ccc(-c2ccc(N)cc2)cc1)OCC
Data returned: > 100 µM (inactive)

###

System: CCRF-CEM
PROTOCOL TEXT: NCI tumour cell line growth inhibition, 48 h
The source made the active and inactive calls. Rule as the data show it: active = GI50 up to about 1.1 µM and inactive = higher.
Property: GI50; scope: individual compounds

# COMPOUND, TEST RESULT
records = [
    ("Cc1nc2c(=S)[nH]ncc2[nH]1", "> 100 µM (inactive)"),
    ("Cc1sc(/N=C/c2c[nH]c3ccccc23)c(C#N)c1C", "15.3 µM (inactive)"),
]

Data request: Requested read-out: GI50. Entry: O=c1c(Sc2c(O)c3ccccc3c3ccccc3c2=O)c(O)c2ccccc2c2ccccc12
Data returned: 14 µM (inactive)

Data request: // next record COc1ccc(/C=N/c2ccc(-c3nc4ccccc4s3)cc2)cc1OC
Data returned: 12.8 µM (inactive)

Data request: Same for CC(=O)OCC1OC(OC2CC3C(C)(C)C(O)CC[C@]3(C)C3CCC45CC4(CC[C@H]5C(C)CC(O)C4OC4(C)C)[C@]23C)C(O)C(O)C1O (stereo not given in full)
Data returned: 1.56 µM (inactive)

###

System: OVCAR-4
PROTOCOL TEXT: NCI tumour cell line growth inhibition, 48 h
Activity calls are given as the source filed them. No stated cut-off is given here; in the data, active = GI50 up to about 1.1 µM and inactive = higher.
The reply should be one of these categories: active, inactive

# MOLECULE, LABEL VALUE
measured = [
    ("CCSC1=C(C)N(/C=N/C(C)(C)C)CC1", "inactive"),
]

Data request: Tell me the assay call for Oc1c(CN2CCCC2)ccc2cccnc12 please.
Data returned: inactive

Data request: Next record, please: CSc1cc(-c2ccccn2)nc(-c2ccccn2)c1
Data returned: active

Data request: Same again, this time with O=S1(=O)c2ccccc2Oc2ccc(C(/C=N/O)=N/O)cc21
Data returned: inactive

Data request: Follow-up entry: COc1ccc(C(O)/C(=N\NC(N)=S)c2nc3ccc([N+](=O)[O-])cc3nc2O)cc1OC (stereo not drawn)
Data returned: inactive

Data request: Field entry: COC(=O)C12Oc3ccc(-c4ccc5c(c4O)C(O)=C4C(=O)CC(C)C(O)C4(C(=O)OC)O5)c(O)c3C(O)=C1C(=O)CC(C)C2O (stereo not drawn)
Data returned: active

Data request: Then what about the molecule COc1ccc(O)c2c1C(=O)CCCC2=O ?
Data returned: inactive

Data request: Now consider O=C1C=C2CC[C@H]3[C@@H]4CC[C@H](OC(=O)c5cccc6cc7ccccc7nc56)[C@H]4CC[C@@H]3[C@H]2CC1 .
Data returned: inactive
